Target: T1, biotin-labeled human CD137 fused to human IgG1 Fc fragment (human, biotin-labeled)
T1 construct: Immobilised on streptavidin beads through biotin; also called human CD137-Fc; biotin-human CD137-Fc
Assay: competitive bead ELISA, decrease of signal on biotin-human CD137-Fc with 125 pmol/well free CD3 epsilon peptide against 0
observation.type: Signal decrease (%)
Please respond with the number in % and leave the unit unwritten.

Query :: For the binder dBBDu186 (antibody, human IgG1, V domains shown, IgG: VH joined to human IgG1 CH1-Fc, GLS3000 as light chain) VH: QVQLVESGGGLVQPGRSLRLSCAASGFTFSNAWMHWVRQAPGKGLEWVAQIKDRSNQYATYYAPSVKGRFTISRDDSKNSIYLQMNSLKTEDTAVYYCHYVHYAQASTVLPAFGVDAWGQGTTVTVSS VL: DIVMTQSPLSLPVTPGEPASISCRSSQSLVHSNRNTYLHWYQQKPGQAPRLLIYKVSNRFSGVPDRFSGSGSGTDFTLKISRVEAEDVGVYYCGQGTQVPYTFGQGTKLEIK , what Signal decrease is on record?
Result :: 92.8
